Reference source for all entries: ChEMBL document CHEMBL2390823

# assay-procedure: Oral bioavailability in rat at 5 mg/kg
# Format: ADME, organism-based
# condition-context: in vivo
measurement-kind: bioavailability (%)

// known answers, use as guide
• COc1c(-c2ccc3c(c2)CCC3(C)CNS(C)(=O)=O)cc(-n2ccc(=O)[nH]c2=O)cc1C(C)(C)C (stereo not given) = 62
• COc1c(-c2ccc3c(c2)CCC3CNS(C)(=O)=O)cc(-n2ccc(=O)[nH]c2=O)cc1C(C)(C)C (stereo not given) = 119

I = COc1c(-c2ccc3c(CNS(C)(=O)=O)csc3c2)cc(-n2ccc(=O)[nH]c2=O)cc1C(C)(C)C
II = COc1c(-c2ccc3c(c2)CC=C3CNS(C)(=O)=O)cc(-n2ccc(=O)[nH]c2=O)cc1C(C)(C)C
III = COc1c(-c2ccc3c(c2)CC/C3=N\NS(C)(=O)=O)cc(-n2ccc(=O)[nH]c2=O)cc1C(C)(C)C
Asked: Kindly order the items shown according to bioavailability, from the highest value down. // format: requested-order list of labels
Given back: II, I, III
